# Method summary: Plasma Stability Assay of Example A3, human plasma
# Settings: % of prodrug compound remaining, 37° C., 120 min
Quick reference for Human Plasma Prodrug (%) among some compounds
Enter your answer as a number in %; do not include the unit.

Given smiles	Human Plasma Prodrug (%)
COc1ccc([C@@]23CCC(OC(=O)c4cccc(C)c4)=C[C@@H]2N(C)CC3)cc1OC	62
C/C=C(\C)C(=O)OC1=C[C@@H]2N(C)CC[C@]2(c2ccc(OC)c(OC)c2)CC1	2.4
COc1ccc([C@@]23CCC(OC(=O)c4ccc(C#N)cc4)=C[C@@H]2N(C)CC3)cc1OC	13

Now for another entry.
Give the measured Human Plasma Prodrug (%) of C=C(C)C(=O)OC1=C[C@@H]2N(C)CC[C@]2(c2ccc(OC)c(OC)c2)CC1 .
0.2

---

Entries and their Mouse Plasma Prodrug (%)
# Method summary: Plasma Stability Assay of Example A3, mouse plasma
# Settings: % of prodrug compound remaining, 37° C., 120 min
Please give a number only; it is taken to be in %.

Solved entries:
Compound	Unit	Observed
COc1ccc([C@@]23CCC(OC(=O)c4c(C)cccc4C)=C[C@@H]2N(C)CC3)cc1OC [Compound 372]	%	73
COc1ccc([C@@]23CCC(OC(=O)c4cccc(C(C)(C)C)c4)=C[C@@H]2N(C)CC3)cc1OC [Compound 375]	%	0
COc1ccc([C@@]23CCC(OC(=O)c4ccc(C#N)cc4)=C[C@@H]2N(C)CC3)cc1OC [Compound 354]	%	4

So what does the record say about Mouse Plasma Prodrug (%) for COc1ccc([C@@]23CCC(OC(=O)c4ccc(C(F)(F)F)cc4)=C[C@@H]2N(C)CC3)cc1OC [Compound 310] ?
0.1

---

# Method summary: Plasma Stability Assay of Example A3, human plasma
# Settings: % of prodrug compound remaining, 37° C., 30 min
Human Plasma Prodrug (%) overview
# value in %; strip the unit string

Worked examples, 2 molecules total:
Given smiles	Human Plasma Prodrug (%)
COc1ccc([C@@]23CCC(OC(=O)C4CC4)=C[C@@H]2N(C)CC3)cc1OC	6.2
COc1ccc([C@@]23CCC(OC(=O)c4cccc(C)c4)=C[C@@H]2N(C)CC3)cc1OC	88

// returns reported Human Plasma Prodrug (%) for input COc1ccc([C@@]23CCC(OC(=O)c4ccc(C#N)cc4)=C[C@@H]2N(C)CC3)cc1OC
72

---

# Method summary: Hydrolysis Assay of Example A2, Condition 1 (SGF with pepsin, pH 1.5, 37° C.)
# Type: physicochemical
# Settings: SGF with pepsin pH 1.5, 37° C., 0.5 mM; time 1 h
Readout: Condition 1 Conversion (%)
Respond with the bare value in %.

These solved cases illustrate the format of a correct answer.
Compound	Readout	Observed
COc1ccc([C@@]23CC/C(=N/OC(C)(C)OC)C[C@@H]2N(C)CC3)cc1OC	Condition 1 Conversion (%)	0
COc1cccc(C2COC3(CC[C@@]4(c5ccc(OC)c(OC)c5)CCN(C)[C@H]4C3)O2)c1 (some centres unmarked)	Condition 1 Conversion (%)	0
COc1ccc([C@@]23CCC(=NOC4CCCCO4)C[C@@H]2N(C)CC3)cc1OC (some centres unmarked)	Condition 1 Conversion (%)	7.83

Give the measured Condition 1 Conversion (%) of COc1ccc([C@@]23CCC(=NNC(=O)CCCC(=O)O)C[C@@H]2N(C)CC3)cc1OC .
100

What value of Condition 1 Conversion (%) has been recorded for this entry: COc1ccc([C@]23CCN(C)[C@H]2CC2(CC3)OCC(C34CC5CC(CC(C5)C3)C4)O2)cc1OC (some centres unmarked)
0

Consider the compound shown here: COc1ccc([C@@]23CCC(=NOCC(=O)OC(C)(C)C)C[C@@H]2N(C)CC3)cc1OC What is its recorded Condition 1 Conversion (%)?
1.12

I am curious: what Condition 1 Conversion (%) value has been reported for CCC(C)CC(=O)OC1=C[C@@H]2N(C)CC[C@]2(c2ccc(OC)c(OC)c2)CC1 (some centres unmarked) ?
0

Name the recorded Condition 1 Conversion (%) for COc1ccc([C@]23CCN(C)[C@H]2CC2(CC3)OCC(c3ccncc3)O2)cc1OC (some centres unmarked) .
0
